Target: human TLR9 (Homo sapiens, UniProt Q9NR96)
Construct: host or cells: HEK-Blue cells
Sequence (Q9NR96 26-1032): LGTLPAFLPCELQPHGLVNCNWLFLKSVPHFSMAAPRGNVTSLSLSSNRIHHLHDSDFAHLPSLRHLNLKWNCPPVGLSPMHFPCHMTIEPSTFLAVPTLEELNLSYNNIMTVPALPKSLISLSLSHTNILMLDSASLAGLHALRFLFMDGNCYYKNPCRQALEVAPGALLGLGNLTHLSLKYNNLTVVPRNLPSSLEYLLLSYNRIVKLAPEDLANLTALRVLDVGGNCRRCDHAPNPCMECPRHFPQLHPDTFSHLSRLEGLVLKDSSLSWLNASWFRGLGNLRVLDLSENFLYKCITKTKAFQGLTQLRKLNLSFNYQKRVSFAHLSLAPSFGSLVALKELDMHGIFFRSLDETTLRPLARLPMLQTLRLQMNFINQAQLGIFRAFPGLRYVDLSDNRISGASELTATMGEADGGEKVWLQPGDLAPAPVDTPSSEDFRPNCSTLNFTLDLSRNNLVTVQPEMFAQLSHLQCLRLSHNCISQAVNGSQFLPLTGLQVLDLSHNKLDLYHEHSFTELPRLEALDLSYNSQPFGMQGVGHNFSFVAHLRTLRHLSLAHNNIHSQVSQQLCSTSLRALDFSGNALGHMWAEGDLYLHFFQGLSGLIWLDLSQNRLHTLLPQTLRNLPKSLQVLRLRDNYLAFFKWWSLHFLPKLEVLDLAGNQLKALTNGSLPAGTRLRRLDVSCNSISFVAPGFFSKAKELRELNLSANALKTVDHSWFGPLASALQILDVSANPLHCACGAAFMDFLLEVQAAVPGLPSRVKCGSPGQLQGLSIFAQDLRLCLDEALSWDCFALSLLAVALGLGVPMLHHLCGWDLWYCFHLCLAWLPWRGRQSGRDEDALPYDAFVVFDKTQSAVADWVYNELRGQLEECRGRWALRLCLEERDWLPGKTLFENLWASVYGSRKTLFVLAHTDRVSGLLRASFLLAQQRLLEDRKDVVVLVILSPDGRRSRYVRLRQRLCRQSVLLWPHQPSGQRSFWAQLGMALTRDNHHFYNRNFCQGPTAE
Assay: TLR9 inhibition reporter assay (HEK-Blue SEAP reporter)
Assay type: cell-based
Details: HEK-Blue cells overexpressing human TLR9; ODN2006 5 nM; 22 hour incubation
measured-parameter: IC50 (nM)

As a guide, the following entries are already answered.
COc1ccc(-c2[nH]c3ccc(N4CCN(C5CC(C)(C)NC(C)(C)C5)CC4)cc3c2C)cc1OC :: 379
CCN1CCC(OC2CCN(c3ccc4[nH]c(-c5ccc(OC)c(OC)c5)c(C(C)C)c4c3)CC2)CC1 :: 667
COc1ccc(-c2[nH]c3ccc(N4CCN(C5CCN(C)CC5)CC4)cc3c2C)cc1OC :: 727

1. CCc1c(-c2ccnc(OC)c2)[nH]c2ccc(N3CCN(C4CCN(C(C)C)CC4)CC3)cc12
2. COc1ccc(-c2[nH]c3ccc(N4CCN(C5CCN(CC(C)C)CC5)CC4)cc3c2C)cc1OC
3. COc1ccc(-c2[nH]c3ccc(N4CCC(C5CCN(Cc6ccsc6)CC5)CC4)cc3c2C(C)C)cc1OC
4. CC(C)c1c(-c2ccnc3[nH]ccc23)[nH]c2ccc(N3CCNCC3)cc12
5. CCc1c(-c2ccnc(OC)c2)[nH]c2ccc(N3CCN(C4CC(C)(C)NC(C)(C)C4)CC3)cc12
Input: Put the entries in order of IC50, starting with the largest number. Order the labels as requested and list them.
Output: 4, 3, 1, 2, 5
(4: 8100 nM, 3: 1520 nM, 1: 755 nM, 2: 465 nM, 5: 243 nM)
